B1: Hairpin Ribozyme (parent)
chain: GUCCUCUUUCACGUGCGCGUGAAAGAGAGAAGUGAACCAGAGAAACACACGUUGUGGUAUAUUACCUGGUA

variants of: B1; assay: self-cleavage, relative activity (ratio to wild type); higher = more cleavage; co-transcriptional
Recorded self-cleavage by entry
Respond using a number only.

Some variants with known self-cleavage results, for comparison:
> print(dat)
   sequence.variant  readout.number
1         G21C A71G           0.818
2         G17A G32A           0.105
3         G21C A64U          0.0998
4         A28C G56C           0.101

Which self-cleavage reading was recorded for the variant G42C A44C ? 0.0939

What do we get for A64C A71G ? 0.266
